From: patent US7118895B2

System: Crude diglycosidase
PROTOCOL: Examination of pH in the conversion into isoflavone aglycons by diglycosidase using soybean materials
Assay type: biochemical, Penicillium multicolor IAM7153
TEST PARAMETERS: pH7.8; heat treatment of enzyme: no; reaction time 0 h
Measured Decomposition efficiency of glycitin family in defatted soybean, listed per entry.
ASSAY METRIC: Decomposition efficiency of glycitin family in defatted soybean (%)

CHEMICAL STRUCTURE	OBSERVED VALUE
COc1cc2c(=O)c(-c3ccc(O)cc3)coc2cc1O	33.2
COc1cc2c(=O)c(-c3ccc(O)cc3)coc2cc1O[C@@H]1O[C@H](COC(=O)CC(=O)O)[C@@H](O)[C@H](O)[C@H]1O	66.8
